Target: T1, human SNORF72 receptor (human, UniProt Q9GZQ4 1-415)
T1 construct: Full-length receptor (longest open reading frame), transiently expressed in COS-7 cells (whole cells or membranes prepared from them); also called hSNORF72; NMU receptor
T1 sequence (Q9GZQ4 other isoform, or with tags, fused parts or gaps): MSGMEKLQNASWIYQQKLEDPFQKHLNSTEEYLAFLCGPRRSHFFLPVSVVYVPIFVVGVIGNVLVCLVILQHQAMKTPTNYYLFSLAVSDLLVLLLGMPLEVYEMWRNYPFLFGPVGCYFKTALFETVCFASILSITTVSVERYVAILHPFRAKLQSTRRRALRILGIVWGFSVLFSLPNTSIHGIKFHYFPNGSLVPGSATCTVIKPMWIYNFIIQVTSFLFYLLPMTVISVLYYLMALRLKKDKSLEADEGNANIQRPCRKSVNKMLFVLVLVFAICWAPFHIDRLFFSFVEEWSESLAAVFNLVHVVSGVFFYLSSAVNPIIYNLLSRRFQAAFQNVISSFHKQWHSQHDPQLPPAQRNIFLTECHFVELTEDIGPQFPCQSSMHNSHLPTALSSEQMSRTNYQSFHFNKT
Test: displacement of [125I]rat NMU-23, membranes of SNORF72-transfected COS-7 cells
Description: Radioligand binding assays were performed by diluting membranes prepared from cells expressing the receptor in 50 mM Tris buffer (pH=7.4 at 0° C.) containing 0.1% bovine serum albumin (Sigma), aprotinin (0.005 mg/ml, Boehringer Mannheim) and bestatin (0.1 mM, Sigma) as protease inhibitors. […] After addition of Ready Safe (Beckman) scintillation fluid, bound radioactivity was quantitated using a Trilux (Wallac) scintillation counter (approximately 40% counting efficiency of bound counts). […]
pKi: −log10 of the molar value. No end group written: not given here.
Catalogue of binders with associated pKi
Readout kind: pKi

[[record]]
binder = "YKVNEYQGPVAPSGGFFLFRPRN-NH2 (also called rat neuromedin U-23) [rat NMU-23]"
readout_kind = "pKi"
reported_relation = "="
quantitative_readout = 9.30

[[record]]
binder = "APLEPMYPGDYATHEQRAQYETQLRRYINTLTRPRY (peptide, UniProt P06303 30-65, looked up, also called rat pancreatic polypeptide) [rat PP]"
readout_kind = "pKi"
reported_relation = "<"
quantitative_readout = 5.00

[[record]]
binder = "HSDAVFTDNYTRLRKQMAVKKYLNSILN-NH2 (peptide, UniProt P01282 125-152, looked up, species assumed, ends and bridges not checked) [vasoactive intestinal peptide]"
readout_kind = "pKi"
reported_relation = "<"
quantitative_readout = 5.00

[[record]]
binder = "FKVDEEFQGPIVSQNRRYFLFRPRN-NH2 (also called porcine neuromedin U-25) [porcine NMU-25]"
readout_kind = "pKi"
reported_relation = "="
quantitative_readout = 8.74

